quantity_measured: melting point

Solved entries (count: 5):
CN(Cc1ccc(C(=O)O)cc1)c1nc(-c2ccc(N(C)Cc3ccc(C4CCCCC4)cc3)c(Cl)c2)cs1 [Example 242]: 149 to 150 °C
CC(C)(c1ccc(C(=O)O)cc1)c1nc(-c2ccc(NC(=O)c3ccc(C4CCCCC4)cc3)cc2)cs1 [Example 43]: 262 to 264 °C
CC(C)N(c1ccc(C(=O)O)cc1)c1nc(-c2ccc(NC(=O)c3ccc(N4C[C@@H](C)O[C@@H](C)C4)cc3)cc2)cs1.Cl: 230 °C (dec.)
COc1ccc(OCc2ccccc2)c(-c2csc(Nc3ccc(C(=O)O)cc3OCc3ccccc3)n2)c1 [Example 156]: 218 to 221 °C
CC(C)(C)c1ccc(COc2ccc3nc(-c4csc(N(CC5CCCCC5)c5ccc(C(=O)O)cc5)n4)oc3c2)cc1 [Example 188]: 230 °C (dec.)

melting point reported for this molecule CN(Cc1ccc(C(=O)OCOC(=O)C(C)(C)C)cc1)c1nc(-c2ccc(OCc3ccc(C4CCCCC4)cc3)cc2)cs1 [Example 268] : 88 to 90 °C
